Reported Kd values for a set of binders
- TARGET SYSTEM: T1, hANGPTL3(17-460)-His (human, UniProt Q9Y5C1 17-460)
- T1 construct: Bought protein (R&D Systems); also called full-length mature human ANGPTL3 with a C-terminal decahistidine tag; Human ANGPTL3 (17-460)-His
- T1 sequence: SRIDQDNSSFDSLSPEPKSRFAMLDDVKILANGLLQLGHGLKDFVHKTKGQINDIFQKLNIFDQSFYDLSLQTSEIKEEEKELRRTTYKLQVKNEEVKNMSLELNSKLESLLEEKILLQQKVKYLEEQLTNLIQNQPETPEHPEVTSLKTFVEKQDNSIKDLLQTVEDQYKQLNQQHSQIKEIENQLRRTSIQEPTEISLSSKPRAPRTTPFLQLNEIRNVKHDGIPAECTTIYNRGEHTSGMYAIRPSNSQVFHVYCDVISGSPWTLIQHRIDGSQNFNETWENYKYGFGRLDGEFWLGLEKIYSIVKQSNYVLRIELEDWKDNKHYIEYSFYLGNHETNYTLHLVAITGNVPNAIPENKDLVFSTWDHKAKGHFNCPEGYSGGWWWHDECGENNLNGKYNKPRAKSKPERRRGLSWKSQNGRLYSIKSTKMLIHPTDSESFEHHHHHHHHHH
- MEASUREMENT NOTES: SPR Biacore, antigen captured, 37C, pH 7.4, HBS-EP
Write the answer as a number in nM, unit excluded.

H4H1248P (antibody, IgG4, V domains shown) VH: QVQLVESGGGVVQPGRSLRLSCAASGFTFSSYGMHWVRQAPGKGLEWVAVISYDGSNKYYADSVKGRFTISRDNSKNTLYLQMNSLRAEDTAVYYCAKVGATTFYYYYGMDVWGQGTTVTVSS VL: DIQMTQSPSSVSAFVGDRVTITCRASQGISSWLAWYQQKPGKAPKLLIYAASSLQSGVPSRFSGSGSGTDFTLTISSLQPEDFATYYCQKANSFPFTFGPGTKVEIK :: 0.986
H4H1250P (antibody, IgG4, V domains shown) VH: QVQLVESGGGVVQPGRSLRLSCAASGFTFSSYGMHWVRQAPGKGLEWVAVISNDGSNKYYVDSVKGRFTMGRDNSKNTLYLQMNSLRVEDTAVYYCAKGAGTLYYYYYGMDVWGQGTTVTVSS VL: DIQMTQSPSTLSASVGNRVTITCRASQSISSWLAWYQQKPGKAPKFLIYKASSLESGVPSRFSGSGSGTEFTLTITSLQPDDFATYYCQQYNIYSWTFGQGTKVEIK :: 0.324

Below: the item to evaluate.
Entry H1M896N (antibody, V domains shown) VH: EVQLLESGGGLVQPGGSLRLSCAASGFTFSTYAMSWVRQAPGKGLEGVSGISGTGYRTYYADSVKGRFTISRDNSKNSLYLQMNSLRAEDTAVYYCAKDRGLLWFGELTYWGQGTLVTVSS VL: DIQMTQSPSTLSASVGDRVTITCRASQSINNWLAWYQQKPGKAPNLLIYKASSLESGVPSRFSGSGSGTEFTLTISSLQPDDFATYYCQQYNDYWTFGQGTKVEIK has what Kd?
0.158
